// provenance: paper PMC7826789

Would you kindly list Percent Control for each of these compounds?
Test system: TSSK1B
Conditions: Compound Concentration (nM):1000;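 also: KINOMEscan scanMAX binding as percent activity remaining versus control; lower means stronger binding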

# input Look at this compound and give its reported Percent Control. CC1=C(C(=O)Nc2ccc3[nH]ncc3c2)C(c2ccc3ccccc3c2)CC(=O)N1 (centres unmarked) [GSK270822A]
# output 97%

# input Request: Cc1cc(O)cc(C)c1/C=C/c1cncc(C(N)=O)c1 [GW435821X]
# output 100%

# input Request: COc1ccc2[nH]c3c4[nH]c5ccc(OC)cc5c4c4c(c3c2c1)C(=O)NC4=O [GW296115X]
# output 89%

# input Request: COc1cc2ncn(-c3cc(O[C@H](C)c4ccccc4Cl)c(C(N)=O)s3)c2cc1OC [GSK237701A]
# output 74%

# input Request: NS(=O)(=O)c1ccc(N/N=C2\C(=O)Nc3ccc(Cl)cc32)cc1 [GW280670X]
# output 100%

====

Would you kindly list Percent Control for each of these compounds?
Tested on: TEC
Settings: Compound Concentration (nM):1000
The answer is to be given in %; state only the numeric part.

# input Lookup: Percent Control / TEC / O=C(Nc1n[nH]c2nc(-c3ccc(O)cc3)c(Br)cc12)C1CC1 [SB-725317]
# output 100

# input Request: CCS(=O)(=O)c1ccc(OC)c(Nc2ncc(-c3cccc(F)c3)o2)c1 [GW621970X]
# output 100

# input Request: CCc1ccc(Oc2nccc(-c3c(-c4ccc(F)cc4)ncn3C3CCNCC3)n2)cc1 [SB-242719]
# output 100

# input Request: CC1=C(C(=O)Nc2ccc3[nH]ncc3c2)C(c2ccc(Cl)c(Cl)c2)CC(=O)N1 (centres unmarked) [GSK299115A]
# output 92

# input Request: CN(C)CCNC(=O)Nc1ccc(N(C)c2ccnc(Nc3ccc(CS(C)(=O)=O)cc3)n2)cc1.Cl [GW830900A]
# output 82

# input Request: Cl.O=C(Nc1ccc(Oc2ccc3[nH]c(NC(=O)c4ccco4)nc3c2)cc1)Nc1cc(C(F)(F)F)ccc1F [GW683134A]
# output 100

# input Request: COc1ccccc1-c1cc(/C=C2\C(=O)Nc3ncc(Br)cc32)cc(Br)c1O [GW442130X]
# output 100

# input Request: CCn1c(-c2nonc2N)nc2c(C#CC(C)(C)O)nc(OCCNC)cc21.Cl [GSK949675]
# output 100

====

Test system: MYLK2
Conditions: Compound Concentration (nM):1000
property: Percent Control (%)
The answer is to be given in %; state only the numeric part.

# input Look at this compound and give its reported Percent Control. COc1cccc(-n2ncc3c(N/N=C/c4ccncc4)ncnc32)c1 [GW784752X]
# output 91

# input Request: CCn1c(-c2nonc2N)nc2c(C#CC(C)(C)O)nc(OCCNC)cc21.Cl [GSK949675]
# output 98

# input Request: CC1=C(C(=O)Nc2ccc3[nH]ncc3c2)C(c2ccc3ccccc3c2)CC(=O)N1 (centres unmarked) [GSK270822A]
# output 100

# input Request: CCS(=O)(=O)c1ccc(OC)c(Nc2ncc(-c3cccc(OC)c3)o2)c1 [GW580509X]
# output 100

# input Request: CC1=C(C(=O)Nc2ccc3[nH]ncc3c2)C(c2ccc(Cl)c(Cl)c2)CC(=O)N1 (centres unmarked) [GSK299115A]
# output 100

# input Request: Nc1ncnc2occ(-c3ccc(NC(=O)Nc4cc(C(F)(F)F)ccc4F)cc3)c12 [GW770249X]
# output 83

# input Request: CCc1ccc(Oc2nccc(-c3c(-c4ccc(F)cc4)ncn3C3CCNCC3)n2)cc1 [SB-242719]
# output 80

# input Request: NS(=O)(=O)c1ccc(N/N=C2\C(=O)Nc3ccc(C(=O)NCc4ccncc4)cc32)cc1 [GW300657X]
# output 100
